System: ISC-enriched organoids
assaySummary: Primary screen, 384-well 2.5-D organoid differentiation (ENR+CD, 6 days, Target Selective Inhibitor Library, vs whole-plate median): ATP (CellTiter-Glo 3D, CTG)
setupConditions: primary screen, dose 2.00 uM, standard z score of FC
Structures can show the parent of a compound that is named as a salt.
Measured Z.CTG accompanies every entry in the list below.

molecule | Z.CTG
CCCCN1CCCCC1C(=O)Nc1c(C)cccc1C (stereo not drawn) [Bupivacaine HCl] | −0.717
CC(C)N(CC[C@H](c1ccccc1)c1cc(CO)ccc1O)C(C)C [5-hydroxymethyl Tolterodine (PNU 200577, 5-HMT, 5-HM)] | 0.082
CCN1CCN(c2ccc(Nc3cc(N(C)C(=O)Nc4c(Cl)c(OC)cc(OC)c4Cl)ncn3)cc2)CC1 | −0.442
